MEASUREMENT_CONTEXT: buffer; pH 7.4; 200.0 µM
Give solubility kinetic for every item shown.
Number only, in µg/mL; omit the unit.

Per the records, this compound ( CSc1cccc(NC(C)C(=O)NCc2ccccc2)c1 (configuration not stated) ) has solubility kinetic equal to 37.4

Per the records, this compound ( `COc1ccccc1CCNC(=O)c1ccc(Br)s1` ) has solubility kinetic equal to 29

Per the records, this compound ( `COC(=O)c1cccc(NC(=S)Nc2ccccc2Cl)c1` ) has solubility kinetic equal to 41.4

Per the records, this compound ( `CN(C)C(=O)Oc1noc2cc(Cl)ccc12` ) has solubility kinetic equal to 27.9

Per the records, this compound ( `Cc1ccc(SCC(=O)NCCCc2ccccc2)cc1` ) has solubility kinetic equal to 5.7

Per the records, this compound ( `COc1cc(NC(=O)COC(=O)C=C(C)C)c(C)cc1[N+](=O)[O-]` ) has solubility kinetic equal to 17.2

Per the records, this compound ( `Cc1cccnc1Nc1nc(-c2ccccc2)cs1` ) has solubility kinetic equal to 7.6

----------
MEASUREMENT_CONTEXT: buffer; pH 7.4; 200.0 µM
Rule: solubility kinetic of 2 µg/mL or more gives rule met; anything lower gives rule not met.

**Q:** Given the entry `O=C(Nc1cccc(Cl)c1)Nc1csc([N+](=O)[O-])c1` , answer whether its solubility kinetic meets or surpasses 2 µg/mL.
**A:** rule not met

**Q:** Given the entry `Cc1cc2ncc(-c3ccccc3)nc2cc1C` , answer whether its solubility kinetic meets or surpasses 2 µg/mL.
**A:** rule not met

**Q:** Given the entry `Cc1cc(C)cc(C(=O)Nc2cc3c4c(c2)CC(=O)N4CCC3)c1` , answer whether its solubility kinetic meets or surpasses 2 µg/mL.
**A:** rule not met

**Q:** Given the entry `Cc1ccccc1NC(=S)NC(=O)Cc1ccc(Cl)cc1` , answer whether its solubility kinetic meets or surpasses 2 µg/mL.
**A:** rule not met

**Q:** Given the entry `Cc1cccc(/C(N)=N/OC(=O)c2ccncc2)c1` , answer whether its solubility kinetic meets or surpasses 2 µg/mL.
**A:** rule met

**Q:** Given the entry `CSc1ncc(C(=O)Nc2cccc(C)c2C)c(C)n1` , answer whether its solubility kinetic meets or surpasses 2 µg/mL.
**A:** rule met

**Q:** Given the entry `Cn1cccc1C(=O)OCC(=O)Nc1ccc2[nH]c(=O)[nH]c2c1` , answer whether its solubility kinetic meets or surpasses 2 µg/mL.
**A:** rule met

**Q:** Given the entry `O=C1CN(C(=O)COC(=O)CCc2ccccc2O)c2ccccc2N1` , answer whether its solubility kinetic meets or surpasses 2 µg/mL.
**A:** rule met

**Q:** Given the entry `O=C(CNS(=O)(=O)c1ccccc1)N1CCc2ccccc2C1` , answer whether its solubility kinetic meets or surpasses 2 µg/mL.
**A:** rule met

**Q:** Given the entry `O=c1[nH]c(/C=C\c2cccc(Cl)c2)nc(O)c1[N+](=O)[O-]` , answer whether its solubility kinetic meets or surpasses 2 µg/mL.
**A:** rule met

**Q:** Given the entry `CNC(=O)c1cc(C(=O)c2ccc(C(F)(F)F)cc2)c[nH]1` , answer whether its solubility kinetic meets or surpasses 2 µg/mL.
**A:** rule not met

**Q:** Given the entry `CC1(C)CC(=O)C=C(NNC(=O)c2cccnc2)C1` , answer whether its solubility kinetic meets or surpasses 2 µg/mL.
**A:** rule met

**Q:** Given the entry `Cc1ccc(S(=O)(=O)N2CC(=NN=C(N)N)C2)cc1` , answer whether its solubility kinetic meets or surpasses 2 µg/mL.
**A:** rule met

**Q:** Given the entry `CN(C)c1nc(N(C)C)nc(N2CC(=O)N(c3ccccc3)C2=N)n1` , answer whether its solubility kinetic meets or surpasses 2 µg/mL.
**A:** rule met

**Q:** Given the entry `COC(=O)c1sccc1NC(=O)CSCCc1ccccn1` , answer whether its solubility kinetic meets or surpasses 2 µg/mL.
**A:** rule met

**Q:** Given the entry `CC(=O)Cc1nsc(Nc2ccc(C)cc2)n1` , answer whether its solubility kinetic meets or surpasses 2 µg/mL.
**A:** rule met

**Q:** Given the entry `Cc1cccc(CSc2nc3ccccc3c(=O)n2C)c1` , answer whether its solubility kinetic meets or surpasses 2 µg/mL.
**A:** rule not met

**Q:** Given the entry `CCOc1ccc(C(=O)Nc2cccc3ncccc23)cc1Cl` , answer whether its solubility kinetic meets or surpasses 2 µg/mL.
**A:** rule not met

**Q:** Given the entry `O=c1[nH]c(S)c(/C=C2\C=Nc3ccccc32)s1` , answer whether its solubility kinetic meets or surpasses 2 µg/mL.
**A:** rule met

**Q:** Given the entry `COc1cc(OC)cc(C(=O)N[C@H](C(=O)OCC(=O)c2c[nH]c3ccccc23)C(C)C)c1` , answer whether its solubility kinetic meets or surpasses 2 µg/mL.
**A:** rule met

**Q:** Given the entry `[O-][n+]1ccccc1/C=C/c1ccccc1` , answer whether its solubility kinetic meets or surpasses 2 µg/mL.
**A:** rule met

**Q:** Given the entry CC(=O)C1=C(C)OC(N)=C(C#N)C1c1cccc2ccccc12 (centres undefined) , answer whether its solubility kinetic meets or surpasses 2 µg/mL.
**A:** rule met

**Q:** Given the entry CN1C2CCC1CC(NC(=O)CSCc1ccc(Cl)cc1Cl)C2 (centres undefined) , answer whether its solubility kinetic meets or surpasses 2 µg/mL.
**A:** rule met

**Q:** Given the entry `Cc1nnc(Cn2cnc3c2c(=O)n(C)c(=O)n3C)o1` , answer whether its solubility kinetic meets or surpasses 2 µg/mL.
**A:** rule met
